Every entry's value here was drawn from patent US9605005B2.

Tested on: REL-A (p65) nuclear translocation, HeLa cells
Protocol: REL-A (p65) nuclear translocation assay in HeLa cells (classical NF-kB signaling, TNF-α stimulated)
Assay type: cell-based
Run conditions: Homo sapiens, 0.5 h; HeLa cells, 10 ng/mL TNF-α for 30 minutes; read-out: REL-A HeLa Transloc Assay (IC50)
Value type: pIC50
Formally, pIC50 is defined as -log10 of the concentration c, with c in mol/L.

CN1CC[C@@](O)(C#Cc2cccc(-c3nc(C(N)=O)n4ccccc34)c2)C1=O 4.70
CCNc1nccc2c1c(C(N)=O)nn2-c1cccc(C#C[C@]2(O)CCN(C)C2=O)c1 5.35
CN1CC[C@@](O)(C#Cc2cccc(-n3nc(C(N)=O)c4c3CCCN4)c2)C1=O 5.70

Now let's try a different one.
Per the record, CN1CC[C@@](O)(C#Cc2cccc(-n3nc(C(N)=O)c4cc(F)cnc43)c2)C1=O has pIC50 of 4.70
